Test system: NOMO1
Assay: cell viability relative to DMSO control; higher = less cytotoxic
Details: RPMI 5 mM glucose + 10% FBS; 48 h; 46.1 µM
Recorded cell viability values for a group of compounds are listed next.
Provide the reading as a plain figure in %.

Here are 3 compounds together with their reported answers.
CN1CCC[C@@H]1CCO[C@](C)(c1ccccc1)c1ccc(Cl)cc1 : 103
N[S+](=O)([O-])c1cccc2c1C(=O)c1cccc(O)c1C2=O : 3.99
C/C(O)=C(\C#N)C(=O)Nc1cc(Br)ccc1Br : 82.3

**Q:** May I ask what cell viability has been recorded for "O=C\1N(N\C=C1[N]2C=CN=N2)C3=NC=NC(=C3)N4CCOCC4" ?
**A:** 16.5

**Q:** What do you get for "CC[C@@]1(O)C(=O)OC\C2=C1\C=C\3N(CC4=C3N=C5C=CC=CC5=C4)C2=O" ?
**A:** 17.9

**Q:** What do you get for "COC1=CC=C(C=C1O)C/2=C/C(=O)C3=C(O2)C=C(O)C=C3O" ?
**A:** 102

**Q:** What do you get for "C[C@H]1[C@@H](C(=O)C[C@H]2O[C@@H]3O[C@]4(C)CC[C@H]5[C@H](C)CC[C@@H]([C@H]2C)[C@@]35OO4)O[C@@H]2O[C@]3(C)CC[C@H]4[C@H](C)CC[C@@H]1[C@@]24OO3" ?
**A:** 24.8

**Q:** What do you get for "C[C@]12CC[C@@H]3c4ccc(O)cc4CC[C@H]3[C@@H]1C[C@@H](O)[C@@H]2O" ?
**A:** 115

**Q:** What do you get for "NC(=O)c1cccc2cn(-c3ccc([C@@H]4CCCNC4)cc3)nc12" ?
**A:** 82.2

====

Recorded cell viability values for a group of compounds are listed next.
Tested on: NOMO1
Test: cell viability relative to DMSO control; higher = less cytotoxic
Conditions: RPMI 5 mM glucose + 10% dialyzed FBS; 48 h; 0.19 µM
Provide the reading as a plain figure in %.

COc1ccc2c(c1)c(CC(=O)OCC(=O)O)c(C)n2C(=O)c1ccc(Cl)cc1 : 133
CCC(=O)N[C@H]1CC[C@H](C(=O)N(C)c2ccc(-c3nc4ccccc4o3)cc2)C1 : 86
Nc1nc(N)c2nc(-c3cccc(O)c3)c(-c3cccc(O)c3)nc2n1 : 110

Then this compound:
**Q:** May I ask what cell viability has been recorded for "C[S+](=O)([O-])c1ccc(C(=O)Nc2ccc(Cl)c(-c3ccccn3)c2)c(Cl)c1" ?
**A:** 136

====

System: NOMO1
Test: cell viability relative to DMSO control; higher = less cytotoxic
Settings: RPMI 5 mM glucose + 10% FBS; 48 h; 0.00234 µM
Recorded cell viability values for a group of compounds are listed next.
Provide the reading as a plain figure in %.

Here are 8 compounds together with their reported answers.
C[C@H]1[C@@H](C(=O)C[C@H]2O[C@@H]3O[C@]4(C)CC[C@H]5[C@H](C)CC[C@@H]([C@H]2C)[C@@]35OO4)O[C@@H]2O[C@]3(C)CC[C@H]4[C@H](C)CC[C@@H]1[C@@]24OO3 : 117
N[S+](=O)([O-])c1cccc2c1C(=O)c1cccc(O)c1C2=O : 101
CC[C@H](C)C(=O)O[C@H]1C[C@H](O)\C=C2\C=C/[C@H](C)[C@H](CC[C@@H](O)C[C@@H](O)CC(O)=O)[C@@H]12 : 111
COC(=O)C1C2CC3c4[nH]c5cc(OC)ccc5c4CCN3CC2CC(OC(=O)c2cc(OC)c(OC)c(OC)c2)C1OC (stereo not given) : 94.6
Nc1cccc2c1CN([C@H]1CCC(=O)NC1=O)C2=O : 118
c1ccc(CNc2nc(N3CCOc4ccccc43)nc3c2CCCC3)cc1 : 97.7
CCCCCCCCCC(=O)N[C@@H](Cc1c[nH]c2ccccc12)C(=O)N[C@H](CC(N)=O)C(=O)N[C@@H](CC(=O)O)C(=O)N[C@@H]1C(=O)NCC(=O)N[C@@H](CCCN)C(=O)N[C@@H](CC(=O)O)C(=O)N[C@H](C)C(=O)N[C@@H](CC(=O)O)C(=O)NCC(=O)N[C@H](CO)C(=O)N[C@@H]([C@@H](C)CC(=O)O)C(=O)N[C@@H](CC(=O)c2ccccc2N)C(=O)O[C@@H]1C : 112
CN1\C(=C(\O)C2=C(C=CC=C2)[S+]1([O-])=O)C(=O)NC3=CC=CC=N3 : 101

**Q:** May I ask what cell viability has been recorded for "O=C(Nc1ncc(SCCN2CCCC2)s1)[C@]1(c2ccc([S+](=O)([O-])C3CC3)cc2)C[C@H]1C1CCCCC1" ?
**A:** 127

**Q:** What do you get for "CC(C)C[C@H](NC(=O)CNC(=O)c1cc(Cl)ccc1Cl)B(O)O" ?
**A:** 88.8

**Q:** What do you get for NC(=O)C1CCCc2c1[nH]c1ccc(Cl)cc21 (stereo not given) ?
**A:** 121

**Q:** What do you get for "CN1CCC[C@@H]1CCO[C@](C)(c1ccccc1)c1ccc(Cl)cc1" ?
**A:** 105

**Q:** What do you get for "Cn1cc(/C=C2\C(=O)Nc3cccnc32)c2ccccc21" ?
**A:** 119

**Q:** What do you get for "COc1cc2nc(-c3cc(F)ccc3O)nc(N[C@@H]3CNC[C@H]3C(C)(C)O)c2cc1OC" ?
**A:** 105

**Q:** What do you get for "O=C\1N(N\C=C1[N]2C=CN=N2)C3=NC=NC(=C3)N4CCOCC4" ?
**A:** 83.9

====

Recorded cell viability values for a group of molecules are listed next.
System: SEM cells
Assay: cell viability relative to DMSO control; higher = less cytotoxic
Details: RPMI 5 mM glucose + 10% dialyzed FBS; 48 h; 0.00234 µM
Provide the reading as a plain figure in %.

CC1(C)CNc2cc(NC(=O)c3cccnc3NCc3ccncc3)ccc21 : 112
Nc1nc(N)c2nc(-c3cccc(O)c3)c(-c3cccc(O)c3)nc2n1 : 99.4
COc1ccc([C@@H]2CC(=O)c3c(O)cc(O[C@@H]4O[C@H](CO[C@@H]5O[C@@H](C)[C@H](O)[C@@H](O)[C@H]5O)[C@@H](O)[C@H](O)[C@H]4O)cc3O2)cc1O : 107
CCOC(=O)c1cncn1[C@H](C)c1ccccc1 : 116
CN(C)CC[C@H](c1ccc(Cl)cc1)c1ccccn1 : 83.4

Then this molecule:
**Q:** May I ask what cell viability has been recorded for "CCN(C(=O)C/1=C(O)/C2=C(C=CC=C2Cl)N(C)C1=O)C3=CC=CC=C3" ?
**A:** 80.1

====

System: SEM cells
Assay: AUC of viability dose-response curve (% viability x log10 dose units); higher = less sensitive
Conditions: HPLM + 10% dialyzed FBS; 48 h
Recorded AUC of viability dose-response curve values for a group of molecules are listed next.
Could you keep your reply to the number by itself?

Here are 2 molecules together with their reported answers.
CC[C@@H]1/C=C(\C)C[C@H](C)C[C@H](OC)[C@H]2O[C@@](O)(C(=O)C(=O)N3CCCC[C@H]3C(=O)O[C@H](/C(C)=C/[C@@H]3CC[C@H](Cl)[C@H](OC)C3)[C@H](C)[C@@H](O)CC1=O)[C@H](C)C[C@@H]2OC : 451
C[C@]12CC[C@H]3[C@@H](C\C=C/4C[C@@H](O)CC[C@]34C)[C@@H]1CCC2=O : 468

Then this molecule:
**Q:** Give recorded AUC of viability dose-response curve with SEM cells for the following molecule: O=C(O)COCCN1CCN(C(c2ccccc2)c2ccc(Cl)cc2)CC1 (stereo not drawn)
**A:** 465

====

System: NOMO1
Assay: cell viability relative to DMSO control; higher = less cytotoxic
Details: HPLM + 10% dialyzed FBS; 48 h; 0.0211 µM
Recorded cell viability values for a group of compounds are listed next.
Provide the reading as a plain figure in %.

Here are 8 compounds together with their reported answers.
Nc1ncnc2ccccc12 : 35.2
Cc1csc(NC(=O)c2sc3nc4c(c(C(F)(F)F)c3c2N)CCC4)n1 : 101
CN(C)CCOc1ccc(-c2nc(-c3ccncc3)c(-c3ccc4c(c3)CC/C4=N\O)[nH]2)cc1 : 110
Cn1c(=O)n(-c2ccc(C(C)(C)C#N)cc2)c2c3cc(-c4cnc5ccccc5c4)ccc3ncc21 : 97.5
CC(C)c1cc(C(=O)N2Cc3ccc(CN4CCN(C)CC4)cc3C2)c(O)cc1O : 108
COc1ncnc(N[S+](=O)([O-])c2ccc(N)cc2)c1OC : 122
Oc1cccc(-c2nc(N3CCOCC3)c3oc4ncccc4c3n2)c1 : 91.8
COc1cccc([C@@H](C)NCCCc2ccccc2Cl)c1 : 111

**Q:** May I ask what cell viability has been recorded for "O=C1Nc2ccc(I)cc2/C1=C/c1cc(Br)c(O)c(Br)c1" ?
**A:** 106

**Q:** What do you get for "ClC1=CC\2=C(OC3=C(C=CC=C3)\N=C2N4CCNCC4)C=C1" ?
**A:** 94.5

**Q:** What do you get for "CN1\N=C(N)/C2=C[N]([C@@H]3O[C@H](CO[P](O)(O)=O)[C@@H](O)[C@H]3O)C4=C2C1=NC=N4" ?
**A:** 111

Source listed as the supplement of paper PMC11451515.
